System: CP194
Assay: qHTS profiling for inhibitors of Plasmodium falciparum proliferation (AID 504749); note: nearly all actives have a fitted effect of over 60% in size
Conditions: P. falciparum in erythrocytes, SYBR Green DNA, 72 h; series mostly up to 28.7 µM
Results filed as inconclusive are left out. Activity calls are given as the source filed them. Calls come from the whole dose curve; as a rule, active = well fitted inhibition curve with a large enough effect; inconclusive = small, poorly fitted or top-dose-only effect; inactive = flat fitted curve, though single readings scatter.
Reply using exactly one outcome from YES (active), NO (inactive)

The examples below pair each entry with its known result.
{"compound": "CSc1ccc(C(=O)c2[nH]c(=O)[nH]c2C)cc1", "group": "NO"}
{"compound": "CC(=O)[C@]1(O)Cc2c(O)c3c(c(O)c2[C@@H](O[C@H]2C[C@H](N)[C@H](O)[C@H](C)O2)C1)C(=O)c1ccccc1C3=O", "group": "YES"}
{"compound": "CCN1CCc2nc(N)oc2CC1", "group": "NO"}
{"compound": "COC(=O)[C@H]1[C@H]2C[C@@H]3c4[nH]c5cc(OC)ccc5c4CCN3C[C@H]2C[C@@H](OC(=O)c2cc(OC)c(OC)c(OC)c2)[C@@H]1OC", "group": "YES"}
{"compound": "CCCCCCCC/C=C\\CCCCCCCC(=O)NCc1ccc(O)c(OC)c1", "group": "NO"}

Req: How did this test come out for CNC1(C)C2CCC(C2)C1(C)C (stereo not given) ?
Resp: NO

Req: How did this test come out for `Cc1cc(C)c(/C=C2\C(=O)Nc3ccccc32)[nH]1` ?
Resp: NO

Req: How did this test come out for `Brc1c(NC2=NCCN2)ccc2nccnc12` ?
Resp: NO

Req: How did this test come out for `NC(=O)c1ncn([C@@H]2O[C@H](CO)[C@@H](O)[C@H]2O)c1O` ?
Resp: NO

Req: How did this test come out for `CCCCOCCOCCOCc1cc2c(cc1CCC)OCO2` ?
Resp: NO

====

Experiment: Validation screen for small molecules that induce DNA re-replication in SW480 colon adenocarcinoma cells (AID 504364); note: 0% is about no effect
Conditions: DNA re-replication phenotype (high-content imaging); series mostly up to 46.1 µM
Results filed as inconclusive are left out. Active and inactive are the calls of the source. The call rests on the fitted dose curve; in most records, active means well fitted activation curve with a large enough effect; inconclusive means small, poorly fitted or top-dose-only effect; inactive means flat fitted curve, though single readings scatter.
measured_endpoint: outcome

Please review the entries below; each comes with its answer.
{"molecule": "COc1cc(Cc2cnc(N)nc2N)cc(OC)c1OC", "outcome": "inactive"}
{"molecule": "NCCCNCCSP(=O)(O)O", "outcome": "inactive"}
{"molecule": "O=C(CCNNC(=O)c1ccncc1)NCc1ccccc1", "outcome": "inactive"}
{"molecule": "CC1=NS(=O)(=O)c2cc(Cl)ccc2N1", "outcome": "inactive"}
{"molecule": "CN(C)CC/C=C1\\c2ccccc2COc2ccccc21", "outcome": "inactive"}

Req: Recorded outcome of `C(=C\c1ccccc1)/CN1CCN(C(c2ccccc2)c2ccccc2)CC1` , please.
Resp: inactive

Req: Recorded outcome of `Cc1nc2ccccn2c(=O)c1CCN1CCC(C(=O)c2ccc(F)cc2)CC1` , please.
Resp: inactive

====

Assay: Quantitative high throughput screen for delayed death inhibitors of the malarial parasite plastid, 96 hour incubation (AID 488745); note: nearly all actives have a fitted effect of over 70% in size
Settings: Plasmodium falciparum growth; series mostly up to 28.7 µM
Results filed as inconclusive are left out. Activity calls are given as the source filed them. Calls follow the shape of the dose curve; as a rule, active = well fitted inhibition curve with a large enough effect; inconclusive = small, poorly fitted or top-dose-only effect, or effect the other way; inactive = no such curve, though single readings can be large or run the other way.
Reply using exactly one outcome from yes (1) (active), no (0) (inactive)

{"molecule": "O=C(O)CN(CCOCCOCCN(CC(=O)O)CC(=O)O)CC(=O)O", "group": "no (0)"}
{"molecule": "OCCN1CCN(CCCN2c3ccccc3C=Cc3ccccc32)CC1", "group": "yes (1)"}
{"molecule": "CC(=O)Oc1cc(C(C)C)c(OCCN(C)C)cc1C", "group": "no (0)"}
{"molecule": "CCCN(CCC)C(=O)C(CCC(=O)O)NC(=O)c1ccccc1 (configuration not stated)", "group": "no (0)"}
{"molecule": "NC/C=C/C(=O)O", "group": "no (0)"}

Req: How did this test come out for `CN1CCN(CC(=O)N2c3ccccc3C(=O)Nc3cccnc32)CC1` ?
Resp: no (0)

Req: How did this test come out for `CN=C(NC#N)NCCSCc1nc[nH]c1C` ?
Resp: no (0)

Req: How did this test come out for c1ccc2c(c1)CCCC2C1=NCCN1 (configuration not stated) ?
Resp: no (0)

Req: How did this test come out for CCn1ccnc1CC1COc2ccccc2O1 (configuration not stated) ?
Resp: no (0)

====

Assay: Nrf2 qHTS screen for inhibitors: Validation (AID 493153);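 note: A549 cells with ARE-driven firefly luciferase reporter reporting Nrf2 activity; % of control where 0% means no effect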
Conditions: A549 ARE-Fluc reporter, 18-24 h; luciferase luminescence
Inconclusive results are not listed. Activity calls are given as the source filed them. Calls follow the shape of the dose curve; as a rule, active = well fitted inhibition curve with a large enough effect in the main read-out, with a control signal flat (not every such curve was filed as active); inconclusive = small, poorly fitted or top-dose-only effect, or effect the other way, or a change in a side signal; inactive = no such curve, though single readings can be large or run the other way.
measured_endpoint: outcome

{"compound": "CC(=O)Oc1cc(C(C)C)c(OCCN(C)C)cc1C", "readout_value": "inactive"}
{"compound": "CCn1cc(C(=O)O)c(=O)c2cc3c(cc21)OCO3", "readout_value": "inactive"}
{"compound": "COc1cc(Cc2cnc(N)nc2N)cc(OC)c1OC", "readout_value": "inactive"}
{"compound": "C#CCN(C)CCCOc1ccc(Cl)cc1Cl", "readout_value": "inactive"}
{"compound": "CN1CCN(C2=Nc3ccccc3Oc3ccc(Cl)cc32)CC1", "readout_value": "inactive"}
{"compound": "CCc1c(C)[nH]c2c1C(=O)C(CN1CCOCC1)CC2 (stereo not drawn)", "readout_value": "inactive"}
{"compound": "CCOC(=O)C1=C(C)NC(C)=C(C(=O)OC)C1c1cccc([N+](=O)[O-])c1 (stereo not drawn)", "readout_value": "inactive"}
{"compound": "CCN(CC)CCOCCOC(=O)C1(c2ccccc2)CCCC1", "readout_value": "inactive"}
{"compound": "CC(=O)Nc1nnc(S(N)(=O)=O)s1", "readout_value": "inactive"}
{"compound": "CN1CCN(CC(=O)N2c3ccccc3C(=O)Nc3cccnc32)CC1", "readout_value": "inactive"}

Req: Recorded outcome of `OCCN1CCN(CC/C=C2/c3ccccc3Sc3ccc(C(F)(F)F)cc32)CC1` , please.
Resp: inactive

Req: Recorded outcome of COc1ccc(CCN(C)CCCC(C#N)(c2cc(OC)c(OC)c(OC)c2)C(C)C)cc1OC (stereo not drawn) , please.
Resp: inactive

Req: Recorded outcome of `CCNC(=O)N1CCN(CCCC(c2ccc(F)cc2)c2ccc(F)cc2)CC1` , please.
Resp: inactive

Req: Recorded outcome of `CC(=O)OCC1=C(C(=O)O)N2C(=O)[C@@H](NC(=O)Cc3cccs3)[C@H]2SC1` , please.
Resp: inactive

Req: Recorded outcome of `CN(C)[C@@H]1C(=O)C(C(N)=O)=C(O)[C@@]2(O)C(=O)C3=C(O)c4c(O)ccc(Cl)c4[C@@H](O)[C@H]3C[C@@H]12` , please.
Resp: inactive

Req: Recorded outcome of `CC1=C(C)C(=O)C(CCCCC#CCCCC#CCO)=C(C)C1=O` , please.
Resp: inactive

Req: Recorded outcome of `Cc1nc2sccn2c(=O)c1CCN1CCC(=C(c2ccc(F)cc2)c2ccc(F)cc2)CC1` , please.
Resp: inactive

====

Test system: HB3
Assay: qHTS profiling for inhibitors of Plasmodium falciparum proliferation (AID 504749); note: nearly all actives have a fitted effect of over 60% in size
Details: P. falciparum in erythrocytes, SYBR Green DNA, 72 h; series mostly up to 28.7 µM
Records with an inconclusive call do not appear. Active and inactive are the calls of the source. The call rests on the fitted dose curve; in most records, active means well fitted inhibition curve with a large enough effect; inconclusive means small, poorly fitted or top-dose-only effect; inactive means flat fitted curve, though single readings scatter.
Reply using exactly one outcome from TRUE (active), FALSE (inactive)

The examples below pair each entry with its known result.
{"compound": "O=C(O)CP(=O)(O)O", "group": "FALSE"}
{"compound": "CC(=O)[C@]1(O)Cc2c(O)c3c(c(O)c2[C@@H](O[C@H]2C[C@H](N)[C@H](O)[C@H](C)O2)C1)C(=O)c1ccccc1C3=O", "group": "TRUE"}
{"compound": "Nc1c2c(nc3ccccc13)CCCC2O (stereo not given)", "group": "FALSE"}
{"compound": "Cc1ccc(=O)n(-c2ccccc2)c1", "group": "FALSE"}
{"compound": "CC(C)(Oc1ccc(CCNC(=O)c2ccc(Cl)cc2)cc1)C(=O)O", "group": "FALSE"}
{"compound": "CN(C)CCCN1c2ccccc2Sc2ccccc21", "group": "FALSE"}
{"compound": "CCNC(=O)N1CCN(CCCC(c2ccc(F)cc2)c2ccc(F)cc2)CC1", "group": "TRUE"}
{"compound": "COc1ccc(CN(CCN(C)C)c2ccccn2)cc1", "group": "FALSE"}
{"compound": "C[N+](C)(C)CCOC(=O)CCC(=O)OCC[N+](C)(C)C", "group": "FALSE"}
{"compound": "CCO/C([O-])=N/c1c[n+](N2CCOCC2)no1", "group": "FALSE"}

Please turn your attention to the following entry.
Req: How did this test come out for `CN(C)C(=O)Oc1cccc([N+](C)(C)C)c1` ?
Resp: FALSE

====

System: CP201
Assay: qHTS profiling for inhibitors of Plasmodium falciparum proliferation (AID 504749); note: nearly all actives have a fitted effect of over 60% in size
Conditions: P. falciparum in erythrocytes, SYBR Green DNA, 72 h; series mostly up to 28.7 µM
Inconclusive results are not listed. The source made the active and inactive calls. Calls come from the whole dose curve; as a rule, active = well fitted inhibition curve with a large enough effect; inconclusive = small, poorly fitted or top-dose-only effect; inactive = flat fitted curve, though single readings scatter.
Reply using exactly one outcome from active, inactive

{"compound": "CCN(Cc1ccncc1)C(=O)C(CO)c1ccccc1 (centres undefined)", "system_name": "CP201", "group": "inactive"}

Req: How did this test come out for `CCCN1C[C@H](CSC)C[C@@H]2c3cccc4[nH]cc(c34)C[C@H]21` ?
Resp: inactive

Req: How did this test come out for `CN(C(=O)CCCOc1ccc2[nH]c(=O)ccc2c1)C1CCCCC1` ?
Resp: inactive

Req: How did this test come out for `CCN(CC)CCNC(=O)c1ccc(NC(C)=O)cc1` ?
Resp: inactive

Req: How did this test come out for `CN1CCN(CC(=O)N2c3ccccc3C(=O)Nc3cccnc32)CC1` ?
Resp: inactive

Req: How did this test come out for `COc1cc2c(cc1OC)-c1cc(=Nc3c(C)cc(C)cc3C)n(C)c(=O)n1CC2` ?
Resp: active

Req: How did this test come out for `C[n+]1cc2c3c(ccc2c2ccc4cc5c(cc4c21)OCO5)OCO3` ?
Resp: inactive

Req: How did this test come out for `OCCN1CCN(CC/C=C2/c3ccccc3Sc3ccc(C(F)(F)F)cc32)CC1` ?
Resp: active

Req: How did this test come out for CNC1(C)C2CCC(C2)C1(C)C (centres undefined) ?
Resp: inactive

Req: How did this test come out for `CCN1CCC[C@H]1CNC(=O)c1c(O)c(Cl)cc(Cl)c1OC` ?
Resp: inactive

Req: How did this test come out for `NC(=O)c1ncn([C@@H]2O[C@H](CO)[C@@H](O)[C@H]2O)c1O` ?
Resp: inactive

Req: How did this test come out for `NC(=O)N1c2ccccc2C=Cc2ccccc21` ?
Resp: inactive
